# Tested on: UO-31 renal
# measurementProtocol: NCI tumour cell line growth inhibition, 48 h
measuredParameter: TGI

Prompt: Determine its reported TGI: `c1ccc(/C(=N\Nc2nc3ccccc3[nH]2)c2ccccn2)cc1`
Completion: 6.73 µM

Prompt: Determine its reported TGI: `N#CC1(CCCI)CCCC1`
Completion: > 100 µM

Prompt: Determine its reported TGI: C=CC12CCCCC1CC(C(=O)OC)=C(O)C2 (stereo unspecified)
Completion: > 100 µM

Prompt: Determine its reported TGI: `Oc1nc(N2CCOCC2)sc1/C=C1\C=Nc2ccccc21`
Completion: > 100 µM

Prompt: Determine its reported TGI: `COc1ccc(/C=C/c2onc3c(=O)n(C)nc(-c4ccccc4)c23)cc1`
Completion: > 100 µM

Prompt: Determine its reported TGI: CCOC(=O)Cc1csc(NC(=O)C(OC(=O)c2ccc(Cl)cc2)c2ccccc2)n1 (stereo unspecified)
Completion: > 100 µM

Prompt: Determine its reported TGI: `Cc1cccc2c(=O)c3c(sc12)c(NCCCNCCO)nc1ccccc13`
Completion: 2.55 µM

Prompt: Determine its reported TGI: CC(=O)OCC1OC(SC2=N/C(=C\c3ccc(Br)s3)C(=O)N2c2ccccc2)C(OC(C)=O)C(OC(C)=O)C1OC(C)=O (stereo unspecified)
Completion: > 100 µM

Prompt: Determine its reported TGI: `Cc1[nH]c(C(=O)Nc2ccc(C(=O)NCCN)cc2OC(C)C)c(Cl)c1Cl`
Completion: 2.96 µM

Prompt: Determine its reported TGI: `CN(CCNC(=O)c1cn(C)c2c1ccc1ccccc12)CCNC(=O)c1cn(C)c2c1ccc1ccccc12`
Completion: 4.68 µM

Prompt: Determine its reported TGI: `Cc1cc(-c2nc3sc(C)cn3c2/C=N/N=C(N)N)c(C)s1`
Completion: > 100 µM

---

# System: IGROV1 ovarian
# measurementProtocol: NCI tumour cell line growth inhibition, 48 h
Would you mind telling me the reported TGI of each entry?

Prompt: Determine its reported TGI: `Cc1nc2ccc(Cl)cc2c2c1CCN2c1ccc(F)cc1`
Completion: 72.7 µM

Prompt: Determine its reported TGI: NC1=NN(c2ccccc2)C(=O)C1C(=O)C(=O)Nc1ccccc1 (stereo unspecified)
Completion: > 100 µM

Prompt: Determine its reported TGI: `COc1cc2c(/C=C3\C(=O)N(C)c4ccccc43)c[nH]c2cc1C`
Completion: > 69.6 µM

Prompt: Determine its reported TGI: CCc1cccc(C(C)C)c1NC(=O)/C(=N\NC(N)=O)C(C(=O)OC)c1cnc2ccccc2n1 (stereo unspecified)
Completion: > 100 µM

Prompt: Determine its reported TGI: `N#CC1(CCCI)CCCC1`
Completion: > 100 µM

Prompt: Determine its reported TGI: OCC1OC(N2C=C(c3nc4ccccc4s3)C3C=CC=CC32)C(O)C(O)C1O (stereo unspecified)
Completion: > 50 µM

Prompt: Determine its reported TGI: `CCN(CC)CCCNc1ccc([N+](=O)[O-])c2nc3ccccc3c(N)c12`
Completion: 2.6 µM

Prompt: Determine its reported TGI: `O=c1[nH]c(-c2ccc(Cl)c(Cl)c2)cn1-c1ccc(Cl)cc1`
Completion: 79.5 µM

Prompt: Determine its reported TGI: `c1ccc(CSC(SCc2ccccc2)c2cccc3ccccc23)cc1`
Completion: > 10 µM

Prompt: Determine its reported TGI: CCC1C(NC(=O)OC)C(=O)N1[C@@H](C)c1ccccc1 (stereo partly specified)
Completion: > 100 µM

Prompt: Determine its reported TGI: `CN(CCNC(=O)c1cn(C)c2c1ccc1ccccc12)CCNC(=O)c1cn(C)c2c1ccc1ccccc12`
Completion: 4.65 µM

Prompt: Determine its reported TGI: `COc1ccc(C)c2sc(N(Cc3cccnc3)C(=O)c3ccc(C#N)cc3)nc12`
Completion: > 100 µM

Prompt: Determine its reported TGI: `COc1cc(/C=N/NC(=O)c2c(Cl)c(Cl)c(Cl)c(Cl)c2-c2nc3ccc(C(=O)c4ccccc4)cc3[nH]2)ccc1O`
Completion: > 100 µM

Prompt: Determine its reported TGI: `N#Cc1c(-c2ccc([N+](=O)[O-])cc2)c2c([nH]c1=O)-c1ccccc1CCC2`
Completion: > 100 µM

Prompt: Determine its reported TGI: `Cc1cc(N(CCC#N)CCC#N)ccc1/C=C1N=C(/C=C\c2ccccc2)N(NC(=O)CC(=O)Nc2ccccc2Cl)C\1=O`
Completion: > 100 µM

Prompt: Determine its reported TGI: `Brc1ccc(-c2[nH]c3ccccc3c2/C=N\Nc2ccc(-c3nc4ccccc4[nH]3)cc2)cc1`
Completion: > 88.3 µM

Prompt: Determine its reported TGI: `Cc1ccc(-c2cc(C(=O)Nc3ccc(S(=O)(=O)N4CCCCC4)cc3)[nH]n2)c(O)c1`
Completion: > 100 µM

Prompt: Determine its reported TGI: `COc1ccc(Nc2ncc(I)c(NCCCNC(=O)C3CCC3)n2)cc1`
Completion: 16.6 µM

Prompt: Determine its reported TGI: `N#Cc1c(N)nc2c(c1-c1ccc(Cl)cc1)COc1ccc(F)cc1-2`
Completion: > 100 µM

Prompt: Determine its reported TGI: O=C1CCC2(c3ccc(Cl)cc3)Nc3ccccc3N12 (stereo unspecified)
Completion: > 100 µM

Prompt: Determine its reported TGI: COc1ccc(C2c3ccc4ccccc4c3Oc3ncn(CCCn4ccnc4)c(=N)c32)cc1OC (stereo unspecified)
Completion: 21.8 µM
